- System: P. falciparum male gametocytes
- method_notes: P. falciparum Dual Gamete Formation Assay (PfDGFA), male readout (exflagellation)
- Assay type: cell-based, Plasmodium falciparum NF54
- condition_summary: Plasmodium falciparum; PfDGFA, 24 h incubation with gametocytes before induction, exflagellation readout; read-out: Male IC50
For each record, check the reported IC50: if it is below 600 nM write fulfilled, else write not fulfilled.

Threshold test, IC50 < 600 nM: COc1cc(-c2nc(C(C)(C)CN)[nH]c2-c2ccncc2)ccc1Br.Cl [TCMDC-140674]
not fulfilled

Threshold test, IC50 < 600 nM: COCCN(C)CCCOc1cc2c(cc1OC)ncn2-c1cc(OCc2ccccc2C(F)(F)F)c(C(N)=O)s1.Cl [TCMDC-135214]
not fulfilled

Threshold test, IC50 < 600 nM: COc1ccc(Nc2ncc(Cl)c(Nc3cccnc3C(N)=O)n2)cc1N1CCN(C)CC1.Cl [TCMDC-134163]
fulfilled

Threshold test, IC50 < 600 nM: c1ccc2sc(Sc3ncnc4sccc34)nc2c1 [TCMDC-125539]
fulfilled

Threshold test, IC50 < 600 nM: CCCCNS(=O)(=O)c1ccc(NC(=O)c2cc([N+](=O)[O-])ccc2Cl)cc1 [TCMDC-124345]
fulfilled

Threshold test, IC50 < 600 nM: COc1cccc(C23NC(=Nc4nc5ccccc5[nH]4)NC2(c2cccc(OC)c2)NC(=Nc2nc4ccccc4[nH]2)N3)c1 (stereo not drawn) [TCMDC-139087]
not fulfilled

Threshold test, IC50 < 600 nM: CC(C)(CN)c1nc(-c2ccc(Br)c(O)c2)c(-c2ccncc2)[nH]1.Cl [TCMDC-140680]
not fulfilled

Threshold test, IC50 < 600 nM: Cc1cccc(Nc2nc(NCCCCN)nc3cc[nH]c(=O)c23)c1.O=C(O)C(F)(F)F [TCMDC-134946]
fulfilled

Threshold test, IC50 < 600 nM: COc1cc2nc(N3CCN(c4nc(N)c5cc(OC)c(OC)cc5n4)CC3)nc(N)c2cc1OC [TCMDC-123865]
not fulfilled

Threshold test, IC50 < 600 nM: Cc1ccc(C)c(S(=O)(=O)NCC2CCN(Cc3ccc(O)cc3)CC2)c1.O=C(O)C(F)(F)F [TCMDC-141802]
not fulfilled

Threshold test, IC50 < 600 nM: COCCn1c(Sc2ncnc3sccc23)nc2ccccc21 [TCMDC-125258]
not fulfilled

Threshold test, IC50 < 600 nM: CC(C)(C)c1ccc(-c2nc3c(ccc4nc(N)nc(N)c43)[nH]2)cc1.Cl [TCMDC-137984]
fulfilled

Threshold test, IC50 < 600 nM: Br.c1cc(Nc2nc(-c3ccc(-c4csc(Nc5ccncc5)n4)cc3)cs2)ccn1 [TCMDC-139725]
fulfilled

Threshold test, IC50 < 600 nM: O=C(O)C(F)(F)F.O=c1[nH]ccc2nc(N[C@@H]3CCCNC3)nc(Nc3ccc(S(=O)(=O)N4CCOCC4)cc3)c12 [TCMDC-135038]
fulfilled

Threshold test, IC50 < 600 nM: CNC(=O)c1ccccc1Nc1nc(Nc2ccc(N3CCOCC3)cc2)ncc1Cl.Cl [TCMDC-134144]
fulfilled

Threshold test, IC50 < 600 nM: COc1ccc2nc(N=C3NC4(c5ccccc5)NC(=Nc5nc6ccc(OC)cc6[nH]5)NC4(c4ccccc4)N3)[nH]c2c1.O=C(O)C(F)(F)F (stereo not drawn) [TCMDC-139632]
not fulfilled

Threshold test, IC50 < 600 nM: Cl.NCC1(c2nc(-c3ccc(Cl)c(O)c3)c(-c3ccncc3)[nH]2)CCCCC1 [TCMDC-141154]
not fulfilled

Threshold test, IC50 < 600 nM: CC(Nc1cc(-c2ccccn2)nc(-c2ccccn2)n1)c1ccccc1 (stereo not drawn) [TCMDC-125420]
not fulfilled
